- target-under-test: RORγt (Homo sapiens, UniProt P51449)
- Construct: The plasmid of pFN26A-RORγt-LBD and pG14.35 (Promega, Cat. No. E1370) were co-transfected into HEK 293 cells
- Sequence (P51449 269-508 limits assumed, species assumed): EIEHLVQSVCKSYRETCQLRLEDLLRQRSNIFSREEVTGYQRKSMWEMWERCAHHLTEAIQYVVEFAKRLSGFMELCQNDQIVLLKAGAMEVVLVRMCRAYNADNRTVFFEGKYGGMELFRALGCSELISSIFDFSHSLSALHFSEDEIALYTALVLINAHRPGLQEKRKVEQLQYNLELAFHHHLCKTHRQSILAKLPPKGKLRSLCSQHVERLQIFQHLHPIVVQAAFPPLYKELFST
- experimental-details: RORγt cellular reporter gene detection assay
- condition-notes: HEK 293 cells co-transfected with pFN26A-RORγt-LBD and pG14.35, in presence of antagonist Ursolic acid, 24 hrs; top concentration 50 μM
pEC50: −log10 of the molar value.
measured-quantity: pEC50

Some solved cases for reference:
molecule="O=S(=O)(c1cccc(C(F)(F)F)c1)N1C[C@@H]2CC(O[C@@H]3O[C@H](CO)[C@@H](O)[C@H](O)[C@H]3O)CCN2c2ccc(-c3cc(F)cc(OC(F)F)c3)cc21 (stereo partly drawn) [Example 112]" value_reported=5.71
molecule="O=C(O)[C@H]1CCN2c3ccc(-c4cc(F)cc(OC(F)F)c4)cc3N(S(=O)(=O)c3cccc(C(F)(F)F)c3)C[C@@H]2C1 [Example 116]" value_reported=6.52
molecule="C/C(=C\\c1ccc2c(c1)N(S(=O)(=O)c1cccc(C(F)(F)F)c1)C[C@@H]1CN(C3COC3)CCN21)c1c(F)cccc1Cl [Example 33]" value_reported=5.69
molecule="CCOC(=O)C(=O)N1CCN2c3ccc(/C=C(\\C)c4c(F)cccc4Cl)cc3N(S(=O)(=O)c3cccc(C(F)(F)F)c3)C[C@@H]2C1 [Example 57]" value_reported=6.52
molecule="C/C(=C\\c1ccc2c(c1)N(S(=O)(=O)c1cccc(C(F)(F)F)c1)C[C@@H]1CN(CC(C)(C)O)CCN21)c1c(F)cccc1Cl [Example 82]" value_reported=6.40

(A) CCOC(=O)C(=O)N1CCN2c3ccc(/C=C/c4c(Cl)cccc4C(F)(F)F)cc3N(S(=O)(=O)c3cccc(C(F)(F)F)c3)C[C@@H]2C1 [Example 58]
(B) CN1c2ccc(C3=CC(C)(C)OC(C)(C)C3)cc2N(S(=O)(=O)c2cccc(C(F)(F)F)c2)C[C@@H]1CCC(=O)O [Example 118]
(C) C/C(=C\c1ccc2c(c1)N(S(=O)(=O)c1cccc(C(F)(F)F)c1)C[C@@H]1C[C@](C)(OCCC(=O)O)CCN21)c1c(F)cccc1Cl [Example 121]
Ask | Order the items by recorded pEC50; the first position goes to the largest value. // list labels; follow requested order
Reply | B, C, A

(1) COC(=O)CC[C@H]1CN(S(=O)(=O)c2cccc(C(F)(F)F)c2)c2cc(/C=C(\C)c3c(F)cccc3Cl)ccc2N1C [Example 120]
(2) N#CCC(=O)N1CCN2c3ccc(-c4cc(F)cc(OC(F)F)c4)cc3N(S(=O)(=O)c3cccc(C(F)(F)F)c3)C[C@@H]2C1 [Example 28]
Ask | Between 1 and 2 , whose recorded pEC50 is greater? State the label of the item chosen.
Reply | 1
(1: 6.80, 2: 6.45)

* * *

- target-under-test: RORγt-LBD (Homo sapiens, UniProt P51449)
- experimental-details: Time-resolved fluorescence resonance energy-transfer assay (TR-FRET), co-activator peptide recruitment
- Type: biochemical
- Parameters: unit not given here
- condition-notes: upper activation limit; His-RORγt-LBD, SRC peptide
measured-quantity: TR-FRET Biochemical Amax

(P) O=C(O)CCOC1CCN2c3ccc(-c4cc(F)cc(OC(F)F)c4)cc3N(S(=O)(=O)c3cccc(C(F)(F)F)c3)C[C@@H]2C1 (stereo partly drawn)
(Q) N#Cc1cc(F)cc(-c2ccc3c(c2)N(S(=O)(=O)c2cccc(C(F)(F)F)c2)C[C@@H]2CN(CC(=O)O)CCN32)c1
Ask | Between P and Q , whose recorded TR-FRET Biochemical Amax is greater? State the label of the item chosen.
Reply | P
(P: 0.65, Q: 0.40)

* * *

- target-under-test: RORγt-LBD (Homo sapiens, UniProt P51449)
- experimental-details: Time-resolved fluorescence resonance energy-transfer assay (TR-FRET), co-activator peptide recruitment
- condition-notes: His-RORγt-LBD 30 nM, SRC peptide 500 nM; agonistic activity; averages of one or more measurements; read-out: TR-FRET Biochemical EC50/
measured-quantity: EC50 (nM)

Some solved cases for reference:
compound="O=C(O)CN1CCN2c3ccc(-c4cc(F)cc(OC(F)F)c4)cc3N(S(=O)(=O)C3C=C(C(F)(F)F)C=NC3=O)C[C@@H]2C1 (stereo partly drawn)" value_reported=848
compound=O=C(O)[C@@H]1CCN2c3ccc(-c4cc(F)cc(OC(F)F)c4)cc3N(S(=O)(=O)c3cccc(C(F)(F)F)c3)C[C@@H]2C1 value_reported=148
compound=N#Cc1cc(F)cc(-c2ccc3c(c2)N(S(=O)(=O)c2cccc(C(F)(F)F)c2)C[C@@H]2CN(CC(=O)O)CCN32)c1 value_reported=41.9

(A) CS(=O)(=O)COC1CCN2c3ccc(-c4cc(F)cc(OC(F)F)c4)cc3N(S(=O)(=O)c3cccc(C(F)(F)F)c3)C[C@@H]2C1 (stereo partly drawn)
(B) CC1(C)C=C(c2ccc3c(c2)N(S(=O)(=O)c2cccc(C(F)(F)F)c2)C[C@@H]2CN(CC(=O)O)CCN32)CC(C)(C)O1
(C) COC(=O)CC[C@H]1CN(S(=O)(=O)c2cccc(C(F)(F)F)c2)c2cc(/C=C(\C)c3c(F)cccc3Cl)ccc2N1C
Ask | Order the items by recorded EC50; the first position goes to the largest value. // list labels; follow requested order
Reply | C, A, B

* * *

- target-under-test: RORγt (Homo sapiens)
- Construct: The plasmid of pFN26A-RORγt-LBD and pG14.35 (Promega, Cat. No. E1370) were co-transfected into HEK 293 cells; expressed in transfected cells; host or cells: HEK 293 cells (Cat. No. GNHu18)
- experimental-details: RORγt cellular reporter gene detection assay;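 as to Cellular Reporter Assay Amax: Ursolic Acid added as 5 µL of 20 µM medium per well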
- Assay type: cell-based
- condition-notes: upper activation limit; HEK 293 cells, in presence of antagonist Ursolic acid, 24 hrs
measured-quantity: Cellular Reporter Assay Amax

Some solved cases for reference:
molecule=COC(=O)CC[C@H]1CN(S(=O)(=O)c2cccc(C(F)(F)F)c2)c2cc(/C=C(\C)c3c(F)cccc3Cl)ccc2N1C measured_quantity="Cellular Reporter Assay Amax" value_reported=5.7
molecule=O=S(=O)(c1cccc(C(F)(F)F)c1)N1C[C@H]2COCCN2c2ccc(-c3cc(F)cc(OC(F)F)c3)cc21 measured_quantity="Cellular Reporter Assay Amax" value_reported=6.3
molecule="O=S(=O)(c1cccc(C(F)(F)F)c1)N1C[C@@H]2CC(O)CCN2c2ccc(-c3cc(F)cc(OC(F)F)c3)cc21 (stereo partly drawn)" measured_quantity="Cellular Reporter Assay Amax" value_reported=4.8
molecule=CC(=O)N1CCN2c3ccc(/C=C/c4c(Cl)cccc4C(F)(F)F)cc3N(S(=O)(=O)c3cccc(C(F)(F)F)c3)C[C@@H]2C1 measured_quantity="Cellular Reporter Assay Amax" value_reported=3.1

(A) CC1(C)C=C(c2ccc3c(c2)N(S(=O)(=O)c2cccc(C(F)(F)F)c2)C[C@@H]2CN(C[C@H](O)CO)CCN32)CC(C)(C)O1
(B) C/C(=C\c1ccc2c(c1)N(S(=O)(=O)c1cccc(C(F)(F)F)c1)C[C@@H]1CN(S(N)(=O)=O)CCN21)c1c(F)cccc1Cl
Ask | Given the listed items, does A or B have the lesser reported Cellular Reporter Assay Amax? State the label of the item chosen.
Reply | A
(A: 1.4, B: 5.6)

* * *

- target-under-test: UniProt P51449
- experimental-details: Time-resolved fluorescence resonance energy-transfer assay (TR-FRET), co-activator peptide recruitment
- Type: biochemical
- Design: unit not given here
- condition-notes: upper activation limit; His-RORγt-LBD, SRC peptide
- Protocol: I. Time-Resolved Fluorescence Resonance Energy-Transfer Assay (TR-FRET) This experiment was a screening experiment for RORγt nuclear receptor agonists based on TR-FRET technology. […] Then the corresponding signal values were read with PerkinElmer EnVision at a wavelength of 665/615 […]. The agonistic activity of the corresponding compound was calculated with Graphpad Prism 7.0 software.
measured-quantity: TR-FRET Biochemical Amax

molecule=CN1c2ccc(C3CC(C)(C)OC(C)(C)C3)cc2N(S(=O)(=O)c2cccc(C(F)(F)F)c2)C[C@@H]1CCC(=O)O value_reported=0.41
molecule=CC(=O)N1CCN2c3ccc(/C=C/c4c(Cl)cccc4C(F)(F)F)cc3N(S(=O)(=O)c3cccc(OC(F)(F)F)c3)C[C@@H]2C1 value_reported=0.76

(P) CS(=O)(=O)COC1CCN2c3ccc(-c4cc(F)cc(OC(F)F)c4)cc3N(S(=O)(=O)c3cccc(C(F)(F)F)c3)C[C@@H]2C1 (stereo partly drawn)
(Q) N#Cc1ccc(F)c(-c2ccc3c(c2)N(S(=O)(=O)c2cccc(C(F)(F)F)c2)C[C@@H]2CN(CC(=O)O)CCN32)c1
Ask | Given the listed items, does P or Q have the lesser reported TR-FRET Biochemical Amax? State the label of the item chosen.
Reply | Q
